Target system: Human immunodeficiency virus type 1 protease (Human immunodeficiency virus 1, UniProt Q72874)
Measured endpoint: pKi
// pKi here means minus log10 of the molar concentration (mol/L)

                               smiles_input  experimental_result
0  CC(C)[C@H](NC(=O)OCc1ccccc1)C(=O)N[C@@H](Cc1ccccc1)[C@@H](O)[C@@H](NCc1ccccc1)C(=O)N[C@H](C(=O)NCc1ccccc1)C(C)C                 8.21
1  CC(C)[C@H](NC(=O)OCc1ccccc1)C(=O)N[C@@H](Cc1ccccc1)[C@@H](O)[C@@H](NCCc1ccccn1)C(=O)N[C@H](C(=O)NCc1ccccc1)C(C)C                 6.70
2  CC(C)[C@H](NC(=O)OCc1ccccc1)C(=O)N[C@@H](Cc1ccccc1)[C@@H](O)[C@@H](NCc1ccccc1)C(=O)N[C@H](C(=O)NCc1nc2ccccc2[nH]1)C(C)C                 7.89

Below: the item to evaluate.
GET /value?item= "CC(C)[C@H](NC(=O)OCc1ccccc1)C(=O)N[C@@H](Cc1ccccc1)[C@@H](O)[C@@H](NCc1ccccc1)C(=O)N[C@H](C(=O)NCc1ccccn1)C(C)C" &field=pKi returns 7.92

----------
Listed molecules paired with reported Ki
Target system: UniProt:Q72874
Numeric only. Scale: nM

Use the examples below as a reference point.
Molecule	Target system	U	Experimental result
CC(C)[C@H](NC(=O)OCc1ccccc1)C(=O)N[C@@H](Cc1ccccc1)[C@@H](O)[C@@H](NCc1ccccc1)C(=O)N[C@H](C(=O)NC(C)(C)C)C(C)C	UniProt:Q72874	nM	72
COc1ccc(CN[C@@H](C(=O)N[C@H](C(=O)NCc2nc3ccccc3[nH]2)C(C)C)[C@H](O)[C@H](Cc2ccccc2)NC(=O)[C@@H](NC(=O)CCc2ccc(O)cc2)C(C)(C)C)cc1	UniProt:Q72874	nM	13
COc1ccc(CN[C@@H](C(=O)N[C@H](C(=O)NCc2ccccc2)C(C)C)[C@H](O)[C@H](Cc2ccccc2)NC(=O)[C@@H](NC(=O)OCc2ccccc2)C(C)C)cc1	UniProt:Q72874	nM	7.4
COc1ccc(CN[C@@H](C(=O)N[C@H](C(=O)NCc2nc3ccccc3[nH]2)C(C)C)[C@H](O)[C@H](Cc2ccccc2)NC(=O)[C@@H](NC(=O)C(C)Oc2ccccc2)C(C)(C)C)cc1 (stereo not given in full)	UniProt:Q72874	nM	6

Below: the item to evaluate.
The molecule "CC(C)[C@H](NC(=O)[C@H](NCc1ccccc1)[C@H](O)[C@H](Cc1ccccc1)NC(=O)[C@@H](NC(=O)N(C)Cc1nc2ccccc2[nH]1)C(C)C)C(=O)NCc1ccccc1" , tested on UniProt:Q72874, showed Ki of 10.2

----------
Target system: Cathepsin D (Homo sapiens, UniProt P07339)
Sequence (P07339 65-162 limits assumed): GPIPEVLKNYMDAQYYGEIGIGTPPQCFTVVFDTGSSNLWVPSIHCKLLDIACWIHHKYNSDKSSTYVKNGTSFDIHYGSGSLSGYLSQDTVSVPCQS
Sequence (P07339 169-412 limits assumed): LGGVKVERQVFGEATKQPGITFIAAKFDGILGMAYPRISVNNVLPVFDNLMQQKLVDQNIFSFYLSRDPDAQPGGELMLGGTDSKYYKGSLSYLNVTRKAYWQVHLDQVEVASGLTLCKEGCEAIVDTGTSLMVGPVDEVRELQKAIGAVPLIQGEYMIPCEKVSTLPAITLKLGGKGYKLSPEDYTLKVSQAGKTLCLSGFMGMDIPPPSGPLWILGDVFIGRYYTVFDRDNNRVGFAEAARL
Assay info: Selectivity for their inhibitory potency against human cathepsin D.
Measured endpoint: pIC50
// pIC50 here means minus log10 of the molar concentration (mol/L)

Use the examples below as a reference point.
Compound	Target system	pIC50
COc1ccc(CN[C@@H](C(=O)N[C@H](C(=O)NCc2nc3ccccc3[nH]2)C(C)C)[C@H](O)[C@H](Cc2ccccc2)NC(=O)[C@@H](NC(=O)C(C)Oc2ccccc2)C(C)(C)C)cc1 (some centres not stated)	Cathepsin D (Homo sapiens, UniProt P07339)	5.70
CC(C)[C@H](NC(=O)[C@H](NCc1ccc(Cl)cc1)[C@H](O)[C@H](Cc1ccccc1)NC(=O)[C@@H](NC(=O)OCc1ccccc1)C(C)(C)C)C(=O)NCc1nc2ccccc2[nH]1	Cathepsin D (Homo sapiens, UniProt P07339)	5.74
COc1ccc(CN[C@@H](C(=O)N[C@H](C(=O)NCc2nc3ccccc3[nH]2)C(C)C)[C@H](O)[C@H](Cc2ccccc2)NC(=O)[C@@H](NC(=O)OCc2ccccc2)C(C)C)cc1	Cathepsin D (Homo sapiens, UniProt P07339)	6.42
CC(C)[C@H](NC(=O)[C@H](NCc1ccccc1)[C@H](O)[C@H](Cc1ccccc1)NC(=O)[C@@H](NC(=O)OCc1ccccc1)C(C)(C)C)C(=O)NCc1ccccc1	Cathepsin D (Homo sapiens, UniProt P07339)	7.22
COc1ccc(CN[C@@H](C(=O)N[C@H](C(=O)NCc2nc3ccccc3[nH]2)C(C)C)[C@H](O)[C@H](Cc2ccccc2)NC(=O)[C@@H](NC(=O)OCc2ccccc2)C(C)(C)C)cc1	Cathepsin D (Homo sapiens, UniProt P07339)	6.00

Below: the item to evaluate.
The compound "COc1ccc(CN[C@@H](C(=O)N[C@H](C(=O)NCc2ccccc2)C(C)C)[C@H](O)[C@H](Cc2ccccc2)NC(=O)[C@@H](NC(=O)OCc2ccccc2)C(C)C)cc1" , tested on Cathepsin D (Homo sapiens, UniProt P07339), showed pIC50 of 6.96

----------
System: MT4
Assay info: Antiviral activity by analysis of p24 antigen concentration for HIV-1 strain IIIB in de novo infected MT-4 cells
Format: functional, cell-based
Conditions: Homo sapiens
Measured endpoint: pIC50
// pIC50 here means minus log10 of the molar concentration (mol/L)

Smiles input	pIC50
COc1ccc(CN[C@@H](C(=O)N[C@H](C(=O)NCc2ccccc2)C(C)C)[C@H](O)[C@H](Cc2ccccc2)NC(=O)[C@@H](NC(=O)OCc2ccccc2)C(C)C)cc1	6.88
COc1ccc(CN[C@@H](C(=O)N[C@H](C(=O)NCc2nc3ccccc3[nH]2)C(C)C)[C@H](O)[C@H](Cc2ccccc2)NC(=O)[C@@H](NC(=O)OCc2ccccc2)C(C)(C)C)cc1	8.27

GET /value?item= "COc1ccc(CN[C@@H](C(=O)N[C@H](C(=O)NCc2nc3ccccc3[nH]2)C(C)C)[C@H](O)[C@H](Cc2ccccc2)NC(=O)[C@@H](NC(=O)CCc2ccc(O)cc2)C(C)(C)C)cc1" &field=pIC50 returns 7.68

GET /value?item= "CC(C)[C@H](NC(=O)[C@H](NCc1ccc(Cl)cc1)[C@H](O)[C@H](Cc1ccccc1)NC(=O)[C@@H](NC(=O)OCc1ccccc1)C(C)(C)C)C(=O)NCc1nc2ccccc2[nH]1" &field=pIC50 returns 7.95

GET /value?item= "CC(C)[C@H](NC(=O)OCc1ccccc1)C(=O)N[C@@H](Cc1ccccc1)[C@@H](O)[C@@H](NCc1ccccc1)C(=O)N[C@H](C(=O)NCc1ccccc1)C(C)C" &field=pIC50 returns 6.50

----------
Target system: Human immunodeficiency virus type 1 protease (Human immunodeficiency virus 1, UniProt Q72874)
Listed compounds paired with reported Ki
Numeric only. Scale: nM

Use the examples below as a reference point.
>>> df
                               smiles_input  measured_endpoint  experimental_result
0  CC(C)[C@H](NC(=O)OCc1ccccn1)C(=O)N[C@@H](Cc1ccccc1)[C@@H](O)[C@@H](NCc1ccccc1)C(=O)N[C@H](C(=O)NCc1ccccc1)C(C)C                 Ki                  8.6
1  CC(C)[C@H](NC(=O)[C@H](NCc1ccccc1)[C@H](O)[C@H](Cc1ccccc1)NC(=O)[C@@H](NC(=O)OCc1ccccc1)C(C)(C)C)C(=O)NCc1ccccc1                 Ki                  9.2
2  CC(C)[C@H](NC(=O)c1ccc2ccccc2n1)C(=O)N[C@@H](Cc1ccccc1)[C@@H](O)[C@@H](NCc1ccccc1)C(=O)N[C@H](C(=O)NCc1ccccc1)C(C)C                 Ki                 10.2
3  CC(C)[C@H](NC(=O)[C@H](NCc1ccccc1)[C@H](O)[C@H](Cc1ccccc1)NC(=O)[C@H](C)NC(=O)OCc1ccccc1)C(=O)NCc1ccccc1                 Ki                   34

GET /value?item= "CCCCN[C@@H](C(=O)N[C@H](C(=O)NCc1ccccc1)C(C)C)[C@H](O)[C@H](Cc1ccccc1)NC(=O)[C@@H](NC(=O)OCc1ccccc1)C(C)C" &field=Ki returns 23

GET /value?item= "CC(C)[C@H](NC(=O)OCc1ccccc1)C(=O)N[C@@H](Cc1ccccc1)[C@@H](O)[C@@H](NCc1ccccc1)C(=O)N[C@H](C(=O)OCc1nc2ccccc2[nH]1)C(C)C" &field=Ki returns 29

GET /value?item= "CC(C)[C@H](NC(=O)[C@H](NCc1ccccc1)[C@H](O)[C@H](Cc1ccccc1)NC(=O)[C@H](CCC(N)=O)NC(=O)OCc1ccccc1)C(=O)NCc1ccccc1" &field=Ki returns 45

GET /value?item= "CC(C)[C@H](NC(=O)OC(C)(C)C)C(=O)N[C@@H](Cc1ccccc1)[C@@H](O)[C@@H](NCc1ccccc1)C(=O)N[C@H](C(=O)NCc1ccccc1)C(C)C" &field=Ki returns 215

GET /value?item= "CC(C)C[C@H](NC(=O)OCc1ccccc1)C(=O)N[C@@H](Cc1ccccc1)[C@@H](O)[C@@H](NCc1ccccc1)C(=O)N[C@H](C(=O)NCc1ccccc1)C(C)C" &field=Ki returns 65

GET /value?item= "CC(C)[C@H](NC(=O)[C@H](NCc1ccccc1)[C@H](O)[C@H](Cc1ccccc1)NC(=O)[C@H](Cc1cnc[nH]1)NC(=O)OCc1ccccc1)C(=O)NCc1ccccc1" &field=Ki returns 29

GET /value?item= "CC(C)[C@H](NC(=O)OCc1ccccc1)C(=O)N[C@@H](Cc1ccccc1)[C@@H](O)[C@@H](SCc1ccccc1)C(=O)N[C@H](C(=O)NCc1ccccc1)C(C)C" &field=Ki returns 10

GET /value?item= "CC(C)[C@H](NC(=O)OCc1ccccc1)C(=O)N[C@@H](Cc1ccccc1)[C@@H](O)[C@@H](NCc1ccccc1)C(=O)N[C@@H](CC(N)=O)C(=O)NCc1ccccc1" &field=Ki returns 42
